Measured values drawn from patent US10251838B2 for this set.

Experiment: Phase transition temperatures (TM) of phospholipids
Format: physicochemical
Details: phosphatidylcholine/phosphatidyldiglycerol/phosphatidyltriglycerol/phosphatidyltetraglycerol with the given fatty acid pattern
Experimental: By selecting a phosphatidylcholine having a suitable main transition temperature, the stimuli-sensitive nanocarrier system, in particular the thermosensitive liposome, can be customised. Table 1 gives main transition temperatures (TM) of phosphatidylcholines whose main transition temperatures are in the range of from 0 to 80° C. The fatty acid chains and their distribution over positions 1 and 2 of the glycerol molecule dominate the physical properties of the phospholipids. […]
Assignment: determine reported TM (phase transition temperature) for the given molecules.
Write the answer as a number in °C, unit excluded.

# input Give TM (phase transition temperature) for CCCCCCCCCCCCCCCCCC(=O)OCC(COP(=O)([O-])OCC[N+](C)(C)C)OC(=O)CCCCCCCCCCCCC (stereo not shown) [1-stearoyl-2-myristoyl-]
# output 33

# input Find the measured TM (phase transition temperature) of CCCCCCCCCCCCCCCC(=O)OC(COC(=O)CCCCCCCCCCCCC)COP(=O)([O-])OCC[N+](C)(C)C (stereo not shown) [1-myristoyl-2-palmitoyl-] and report it.
# output 37

# input Provide measured TM (phase transition temperature) value, entry: CCCCCCCCCCCCCCCC(=O)OCC(COP(=O)([O-])OCC[N+](C)(C)C)OC(=O)CCCCCCCCCCCCC (stereo not shown) [1-palmitoyl-2-myristoyl-]
# output 27

# input Write down TM (phase transition temperature) measured for item CCCCCCCCCCCCCC(=O)OCC(COP(=O)([O-])OCC[N+](C)(C)C)OC(=O)CCCCCCCCCCCCC (stereo not shown) [1,2-dimyristoyl-, 1,2-dimyristoylglycero-3-phosphocholine]
# output 23
